Assay: Solubility in gastric juice or intestinal juice model fluid (precipitation method using DMSO)
Format: physicochemical
Conditions: pH 1.2, simulated gastric fluid, kinetic from dmso stock, 1st fluid for Disintegration Test of Japanese Pharmacopoeia (pH: 1.2), room temperature, read-out: Solubility (μg/mL) 1st fluid
Here the recorded log10 solubility at 24 h is given for each entry.
All values: log10 solubility at 24 h [µg/mL].

Previously resolved entries follow.
>  <MOLECULE>
COc1cc(OCc2ncc(C(F)(F)F)cc2F)ccc1-c1cnc(-c2ccc(Br)nc2)[nH]1

>  <log10 solubility at 24 h>
0.68

$$$$
>  <MOLECULE>
COc1cc(-c2c[nH]c(C3CCC(C(C)(C)C)CC3)n2)ccc1OCc1ccc(C(F)(F)F)cn1 (centres unmarked)

>  <log10 solubility at 24 h>
0.72

$$$$

Report log10 solubility at 24 h, nothing else, for this molecule: `Fc1ccc(-c2nc(Cl)c(-c3ccc(OCc4ncc(C(F)(F)F)cc4F)cc3Cl)[nH]2)cn1`
0.53

Report log10 solubility at 24 h, nothing else, for this molecule: `COc1cc(-c2c[nH]c(-c3ccc(F)nc3)n2)cc(OC)c1OCc1ccc(C(F)(F)F)cn1`
1.36

Report log10 solubility at 24 h, nothing else, for this molecule: COc1cc(OC(C)c2ncc(Br)cc2F)ccc1-c1[nH]c(-c2ccc(F)nc2)nc1Cl (centres unmarked)
0.88

Report log10 solubility at 24 h, nothing else, for this molecule: `COc1cc(-c2[nH]c(C(C)C)nc2Cl)ccc1OCc1ncc(C(F)(F)F)cc1F`
1.92

====

Here the recorded melting point is given for each entry.

>  <COMPOUND>
COc1cc(OCc2ncc(C(F)(F)F)cc2F)ccc1-c1[nH]c(C2CC2)nc1Cl [Example 377]

>  <melting point>
151 to 154 °C

$$$$
>  <COMPOUND>
COc1cc(-c2c[nH]c(-c3ccc(Cl)nc3)n2)ccc1OCc1ccc(C(F)(F)F)cn1 [Example 93]

>  <melting point>
> 280 °C

$$$$
>  <COMPOUND>
COc1cc(OCc2ncc(C(F)(F)F)cc2F)ccc1-c1[nH]c(-c2ccc(F)nc2)nc1Br [Example 255]

>  <melting point>
156 to 158 °C

$$$$
>  <COMPOUND>
COc1cc(OCc2ccc(F)cc2F)ccc1-c1[nH]c(-c2ccc(Cl)nc2)nc1Cl [Example 244]

>  <melting point>
173 to 177 °C

$$$$
>  <COMPOUND>
COc1cc(OCc2ncc(C(F)(F)F)cc2Cl)ccc1-c1[nH]c(-c2ccc(F)nc2)nc1Cl [Example 262]

>  <melting point>
160 to 162 °C

$$$$

Report melting point, nothing else, for this compound: Cc1cc(OCc2ncc(C(F)(F)F)cc2F)ccc1-c1[nH]c(-c2ccc(F)nc2)nc1Cl [Example 352]
204 to 206 °C

Report melting point, nothing else, for this compound: COc1cc(OCc2ncc(C(F)(F)F)cc2F)ccc1-c1cnc(-c2ccc(Cl)nc2)[nH]1 [Example 102]
164 to 186 °C

Report melting point, nothing else, for this compound: COc1cc(-c2c[nH]c(-c3ccc(C(F)(F)F)nc3)n2)ccc1OCc1ccc(Br)cc1F [Example 95]
175 to 177 °C

====

READOUT NAME: melting point

>  <COMPOUND>
COc1cc(-c2c[nH]c(C3CCCCCC3)n2)cc(OC)c1OCc1ccc(C(F)(F)F)cn1 [Example 74]

>  <melting point>
177 to 179 °C

$$$$
>  <COMPOUND>
COc1cc(OCc2ccc(C(F)(F)F)cn2)ccc1-c1[nH]c(C2CC(F)(F)C2)nc1Cl [Example 188]

>  <melting point>
191 to 193 °C

$$$$
>  <COMPOUND>
COc1cc(OCc2cc(C(F)(F)F)ccn2)ccc1-c1[nH]c(-c2ccc(Cl)nc2)nc1Cl [Example 174]

>  <melting point>
176 to 178 °C

$$$$
>  <COMPOUND>
COc1cc(OCc2ccc(C(F)(F)F)nc2)c(C)cc1-c1cnc(-c2ccc(F)nc2)[nH]1 [Example 15]

>  <melting point>
199 to 201 °C (dec.)

$$$$
>  <COMPOUND>
COc1cc(OCc2ncc(C(F)(F)F)cc2Br)ccc1-c1cnc(-c2ccc(F)nc2)[nH]1 [Example 133]

>  <melting point>
153 to 170 °C

$$$$
>  <COMPOUND>
COc1cc(-c2c[nH]c(-c3ccc(Cl)nc3)n2)c(OC)cc1OCc1ccc(C(F)(F)F)cn1 [Example 56]

>  <melting point>
204 to 206 °C

$$$$
>  <COMPOUND>
COc1cc(-c2nc(-c3ccc(F)nc3)[nH]c2Cl)ccc1OCc1ncccc1F [Example 212]

>  <melting point>
161 to 163 °C

$$$$
>  <COMPOUND>
COc1cc(-c2c[nH]c(-c3ccccn3)n2)ccc1OCc1ccc(C(F)(F)F)cn1 [Example 87]

>  <melting point>
217 to 220 °C

$$$$

Report melting point, nothing else, for this compound: COc1cc(OCc2ccc(C(F)(F)F)cc2)ccc1-c1cnc(-c2ccc(F)nc2)[nH]1 [Example 115]
125 to 135 °C

Report melting point, nothing else, for this compound: COc1cc(OCc2cnc(Cl)cn2)ccc1-c1nc(-c2ccc(F)nc2)[nH]c1Cl [Example 217]
231 to 233 °C (dec.)

Report melting point, nothing else, for this compound: COc1cc(OCc2ccc(C(F)(F)F)cn2)ccc1-c1nc(C2CCC(F)(F)CC2)n(CC2CC2)c1Cl [Example 292]
144 to 146 °C

Report melting point, nothing else, for this compound: COc1cc(OCc2c(F)cc(C(F)(F)F)c[n+]2[O-])ccc1-c1[nH]c(-c2ccc(F)nc2)nc1Br [Example 318]
105 to 120 °C
